# Tested on: CAMK4
# Protocol conditions: Compound Concentration (nM):1000;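 also: KINOMEscan scanMAX binding as percent activity remaining versus control; lower means stronger binding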
Measured Percent Control, listed per entry for reference.
The response must be a number in % with no trailing unit.

Here's what some known entries look like.
Molecule	Measure name	U	Measurement
COc1cccc(-c2c[nH]c3c(N/N=C/c4ccncc4)ncnc23)c1 [GW814408X]	Percent Control	%	100
NS(=O)(=O)c1ccc(N/N=C2\C(=O)Nc3ccc(Cl)cc32)cc1 [GW280670X]	Percent Control	%	100
COc1cc(N2CCN(C(C)C)CC2)ccc1Nc1nc(Nc2ccc(F)cc2C(=O)NC[C@@H](O)CO)c2cc[nH]c2n1 [GSK1392956A]	Percent Control	%	57

Then there is this molecule:
Briefly, Percent Control measured for COc1ccc2[nH]c3c4[nH]c5ccc(OC)cc5c4c4c(c3c2c1)C(=O)NC4=O [GW296115X] : 98

* * *

Measured Percent Control, listed per entry for reference.
# Test system: WNK2
# Protocol conditions: Compound Concentration (nM):1000
Give me the value, and tack the unit on after it.

Molecule	Percent Control
COc1cc(C=NNc2ncnc3c2cnn3-c2ccccc2)ccc1O [GW513184X]	100%
COC(=O)Nc1nc2ccc(Oc3ccc(NC(=O)Nc4cc(C(F)(F)F)ccc4F)cc3)cc2s1.Cl [GW693917A]	100%
NS(=O)(=O)c1ccc(Nc2ncc(-c3ccccc3)o2)cc1 [GW572399X]	100%
CCc1ccc(Oc2nccc(-c3c(-c4ccc(F)cc4)ncn3C3CCNCC3)n2)cc1 [SB-242719]	97%
CC1=C(C(=O)Nc2ccc3[nH]ncc3c2)C(c2ccc3ccccc3c2)CC(=O)N1 (centres unmarked) [GSK270822A]	85%

Briefly, Percent Control measured for Cc1cc(O)cc(C)c1/C=C/c1cncc(C(N)=O)c1 [GW435821X] : 100%

Briefly, Percent Control measured for COc1cc2ncn(-c3cc(O[C@H](C)c4ccccc4Cl)c(C(N)=O)s3)c2cc1OC [GSK237701A] : 6.1%

Briefly, Percent Control measured for Cl.O=S1CCN(Cc2ccc(-c3ccc4ncnc(Nc5ccc(OCc6ccccc6)c(F)c5)c4c3)o2)CC1 [GW576924A] : 100%

* * *

Measured Percent Control, listed per entry for reference.
# System: PRKD2
# Protocol conditions: Compound Concentration (nM):1000
The response must be a number in % with no trailing unit.

Response field Percent Control (PRKD2) for item CC(C)COC(=O)c1ccc2c(c1)/C(=C/Nc1ccc(S(N)(=O)=O)cc1)C(=O)N2 [GW416981X] : 100

Response field Percent Control (PRKD2) for item Nc1ncnc2occ(-c3ccc(NC(=O)Nc4cc(C(F)(F)F)ccc4F)cc3)c12 [GW770249X] : 100

Response field Percent Control (PRKD2) for item "COc1cc(C)c(N(C)C(=O)CN(C)C)cc1Nc1nc(Nc2cccc(F)c2C(N)=O)c2cc[nH]c2n1" : 89

Response field Percent Control (PRKD2) for item COc1cccc(-n2ncc3c(N/N=C/c4ccncc4)ncnc32)c1 [GW784752X] : 100

Response field Percent Control (PRKD2) for item Cl.O=S1CCN(Cc2ccc(-c3ccc4ncnc(Nc5ccc(OCc6ccccc6)c(F)c5)c4c3)o2)CC1 [GW576924A] : 100

Response field Percent Control (PRKD2) for item CN(C)CCNC(=O)Nc1ccc(N(C)c2ccnc(Nc3ccc(CS(C)(=O)=O)cc3)n2)cc1.Cl [GW830900A] : 100

Response field Percent Control (PRKD2) for item COc1cc(C=NNc2ncnc3c2cnn3-c2ccccc2)ccc1O [GW513184X] : 100
